# assay.text: Toxicity in mouse erythrocytes assessed as hemolytic activity
# Format: cell-based, Erythrocyte
For each record, write down the corresponding HC50.

The compound listed as CC(C)CCC[C@@H](COS(=O)(=O)O)[C@H]1CC[C@H]2[C@@H]3CC[C@H]4C[C@H](OS(=O)(=O)O)CC[C@]4(C)[C@H]3CC[C@]12C has a reported HC50 of 10 µM

// field: HC50; key: CC(C)CCC[C@@H](COS(=O)(=O)O)[C@H]1CC[C@H]2[C@@H]3CC=C4C[C@H](OS(=O)(=O)O)CC[C@]4(C)[C@H]3CC[C@]12C.NCCc1ccc(O)cc1 ; value = 33 µM

Entry CC(C)CCC[C@@H](COS(=O)(=O)O)[C@H]1CC[C@H]2[C@@H]3CC[C@H]4C[C@H](OS(=O)(=O)O)CC[C@]4(C)[C@H]3CC[C@]12C.NCCc1ccc(O)cc1.NCCc1ccc(O)cc1 — recorded HC50 = 18 µM

Below are some compounds; for each one, tell me its HC50.
1. CC(C)CCC[C@@H](COS(=O)(=O)O)[C@H]1CC[C@H]2[C@@H]3CC[C@H]4[C@@H](O)[C@H](OS(=O)(=O)O)CC[C@]4(C)[C@H]3CC[C@]12C
2. CC(C)CCC[C@@H](COS(=O)(=O)O)[C@H]1CC[C@H]2[C@@H]3CC=C4[C@@H](O)[C@H](OS(=O)(=O)O)CC[C@]4(C)[C@H]3CC[C@]12C

Return:
1. 45 µM
2. 80 µM

# credit: ChEMBL document CHEMBL1159350
